Origin of measurements: patent US10124004B2

# study-system: CDK2/cyclin A2 (Homo sapiens, UniProt P24941)
# Construct: purchased Carna Biosciences, Inc. QS S Assist CDK2/Cyclin A2_FP Kit
# test-details: Human CDK2/cyclin A2 inhibitory activity (QS S Assist CDK2/Cyclin A2_FP Kit, IMAP fluorescence polarization)
# Type: biochemical
# condition-parameters: Human CDK2/cyclin A2 inhibitory activity; read-out: CDK2 Activity symbol
Catalogue of molecules with associated IC50

INSERT INTO results (structure_as_smiles, study_system, reported_endpoint, value_observed) VALUES
  ('CC(=O)N1CCN(Cc2ccc(Nc3ncc4cc(C(F)F)nc(NC(C)C)c4n3)nc2)CC1', 'CDK2/cyclin A2 (Homo sapiens, UniProt P24941)', 'IC50', '≥ 100 nM');

IN: Can you look up the measured IC50 of CC(=O)NCCc1ccc(Nc2ncc3cc(C(F)F)nc(NC(C)C)c3n2)nc1 for me?
OUT: 10 to 100 nM

IN: And the next one, CO[C@H](C)c1cc2cnc(Nc3ccc(N4CCNCC4)cn3)nc2c(NC(C)C)n1 ?
OUT: ≥ 100 nM

###

Below, each of the compounds is paired with its reported pIC50 value.
# study-system: CDK2/cyclin A2 (Homo sapiens)
# Construct: purchased Carna Biosciences, Inc. QS S Assist CDK2/Cyclin A2_FP Kit
# test-details: Human CDK2/cyclin A2 inhibitory activity (QS S Assist CDK2/Cyclin A2_FP Kit, IMAP fluorescence polarization)
# Assay type: biochemical
# condition-parameters: Human CDK2/cyclin A2 inhibitory activity; read-out: CDK2 Activity symbol
pIC50: −log10 of the molar value.

As a guide, the following entries are already answered.
INSERT INTO assay_data (compound, value_observed) VALUES
  ('CO[C@H](C)c1cc2cnc(Nc3ccc(-c4cccnc4)cn3)nc2c(NC(C)C)n1 [Compound 331]', '≤ 7.00'),
  ('CC(C)Nc1nc(C(F)F)cc2cnc(Nc3ccc(CN4CCC(O)CC4)cn3)nc12 [Compound 142]', '7.00 to 8.00'),
  ('CC(C)Nc1nc(C(C)O)cc2cnc(Nc3ccc(N4CCN(C)CC4)cn3)nc12 (centres unmarked) [Compound 71]', '≤ 7.00'),
  ('CNCCOc1ccc(Nc2ncc3cc([C@@H](C)O)nc(NC(C)C)c3n2)nc1 [Compound 529]', '≤ 7.00'),
  ('CC(C)Nc1nc(C(C)O)cc2cnc(Nc3ccc(N4CCC(N)C(F)C4)nn3)nc12 (centres unmarked) [Compound 619]', '≤ 7.00');

The record that follows has no pIC50 shown yet.
IN: Record FC(F)c1cc2cnc(Nc3ccc(N4CCNCC4)cn3)nc2c(NC2CCCC2)n1 [Compound 1] : what is its pIC50 with CDK2/cyclin A2 (Homo sapiens)?
OUT: 7.00 to 8.00

###

# study-system: CDK4/cyclin D3 (Homo sapiens, UniProt P11802)
# Construct: purchased Carna Biosciences, Inc. QS S Assist CDK4/Cyclin D3_FP Kit
# Sequence (P11802 whole entry): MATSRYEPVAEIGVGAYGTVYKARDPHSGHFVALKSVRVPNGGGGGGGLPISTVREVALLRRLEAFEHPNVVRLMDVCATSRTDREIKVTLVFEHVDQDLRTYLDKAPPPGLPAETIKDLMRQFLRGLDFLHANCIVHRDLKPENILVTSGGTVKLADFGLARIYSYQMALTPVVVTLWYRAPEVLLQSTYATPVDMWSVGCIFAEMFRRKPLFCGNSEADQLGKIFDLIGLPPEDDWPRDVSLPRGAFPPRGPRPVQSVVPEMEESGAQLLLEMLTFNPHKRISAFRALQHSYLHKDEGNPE
# Sequence (P30281 whole entry partner): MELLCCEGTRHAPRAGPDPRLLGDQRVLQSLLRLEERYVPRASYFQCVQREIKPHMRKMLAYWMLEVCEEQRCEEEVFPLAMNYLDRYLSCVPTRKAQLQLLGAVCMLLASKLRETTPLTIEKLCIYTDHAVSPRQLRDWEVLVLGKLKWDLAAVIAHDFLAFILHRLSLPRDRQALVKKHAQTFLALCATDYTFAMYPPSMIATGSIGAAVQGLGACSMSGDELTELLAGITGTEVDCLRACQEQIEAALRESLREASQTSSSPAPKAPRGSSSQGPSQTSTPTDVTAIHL
# test-details: Human CDK4/cyclin D3 inhibitory activity (QS S Assist CDK4/Cyclin D3_FP Kit, IMAP fluorescence polarization)
# Format: biochemical
# condition-parameters: 50% inhibitory concentration against CDK4/cyclin D3, given as class symbol
pIC50: −log10 of the molar value.
reported-endpoint: pIC50

INSERT INTO assay_data (compound, reported_endpoint, value_observed) VALUES
  ('CC(C)Nc1nc([C@@H](C)O)cc2cnc(Nc3ccc(NC(=O)C4CCCCN4)cn3)nc12 (some centres unmarked) [Compound 788]', 'pIC50', '> 8.00'),
  ('COC[C@@H](C)Nc1nc([C@@H](C)OC)cc2cnc(Nc3ccc(CN4CCN(CCO)CC4)cn3)nc12 [Compound 916]', 'pIC50', '> 8.00'),
  ('CO[C@H](C)c1cc2cnc(Nc3ccc(N4CCN(CCC(=O)O)CC4)nn3)nc2c(NC(C)C)n1 [Compound 684]', 'pIC50', '7.00 to 8.00'),
  ('C[C@@H](O)c1cc2cnc(Nc3ccc(CN4CCC(CO)CC4)cn3)nc2c(N[C@H]2CC[C@H](O)CC2)n1 [Compound 1151]', 'pIC50', '> 8.00'),
  ('CC(C)CN1CCC(=O)N(c2ccc(Nc3ncc4cc([C@@H](C)O)nc(NC(C)C)c4n3)nc2)CC1 [Compound 632]', 'pIC50', '> 8.00'),
  ('C[C@@H](O)c1cc2cnc(Nc3ccc(N4CCNCC4=O)cn3)nc2c(NCC2CCCOC2)n1 (some centres unmarked) [Compound 691]', 'pIC50', '> 8.00');

IN: Which pIC50 value belongs to C[C@@H](O)c1cc2cnc(Nc3ccc(N4CCNCC4=O)cn3)nc2c(NC2CCC2)n1 [Compound 1045] ?
OUT: > 8.00

IN: Here is the next compound: CC(C)Nc1nc([C@@H](C)O)cc2cnc(Nc3ccc(N4CC[C@H](O)C4)nn3)nc12 [Compound 662]
OUT: > 8.00

IN: Do the same for CO[C@H](C)c1cc2cnc(Nc3ccc(N4C[C@H]5C[C@@H]4CN5)nn3)nc2c(NC(C)C)n1 [Compound 859] please
OUT: > 8.00

IN: Same question, CCNc1nc(C(F)F)cc2cnc(Nc3ccc(CN4CCC(C(=O)O)CC4)cn3)nc12 [Compound 1096] this time
OUT: 7.00 to 8.00

IN: What do you get for O=C(CO)N1CCc2nc(Nc3ncc4cc(C5CCOC5)nc(N[C@H]5CCCOC5)c4n3)ccc2C1 (some centres unmarked) [Compound 1114] ?
OUT: > 8.00

IN: Field entry: CC(C)Nc1nc(C2CCOC2)cc2cnc(Nc3ccc(CN4CCNCC4)cn3)nc12 (centres unmarked) [Compound 881]
OUT: > 8.00

IN: For CC(C)Nc1nc([C@@H](C)O)cc2cnc(Nc3ccc(N4CCC(OCC(=O)O)CC4)nn3)nc12 [Compound 702] then?
OUT: 7.00 to 8.00

IN: Ok, now CC(C)Nc1nc([C@@H](C)O)cc2cnc(Nc3ccc(O[C@H]4CC[C@@H](N(C)C)CC4)cn3)nc12 [Compound 741]
OUT: > 8.00
